# System Tested: hDM21-188 (hDM2) (Homo sapiens)
# Sequence (Q00987 1-188 limits assumed): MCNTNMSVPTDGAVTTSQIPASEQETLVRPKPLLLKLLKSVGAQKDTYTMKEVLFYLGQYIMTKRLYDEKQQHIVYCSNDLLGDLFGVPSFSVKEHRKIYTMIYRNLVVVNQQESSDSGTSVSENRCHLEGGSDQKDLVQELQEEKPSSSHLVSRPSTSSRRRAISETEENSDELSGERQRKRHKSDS
# Protocol Description: Competition fluorescence polarization (cFP) assay, inhibition of p53AD^Flu·hDM2 complexation
# Type: binding
# Condition: competition FP, unlabeled ligand
Property Label: IC50 (µM)

Compound	System Tested	Property Label	Qualifier Operator	Recorded Measurement
CC(C)[C@@H](CC(=O)N[C@H](CC(=O)N[C@@H](CCCN)CC(=O)N[C@H](CC(=O)N[C@@H](C)CC(=O)N[C@@H](CCC(=O)O)CC(=O)O)C(C)C)Cc1c[nH]c2ccccc12)NC(=O)C[C@H](CCC(=O)O)NC(=O)C[C@H](C)NC(=O)C[C@@H](NC(=O)C[C@@H](N)CCCN)C(C)C [β53-W6]	hDM21-188 (hDM2) (Homo sapiens)	IC50	=	198
CC(C)C[C@@H](CC(=O)N[C@@H](CCC(=O)O)CC(=O)N[C@H](CC(=O)N[C@@H](C)CC(=O)N[C@@H](CCCN)CC(=O)N[C@H](CC(=O)N[C@@H](C)CC(=O)N[C@@H](CCC(=O)O)CC(=O)O)C(C)C)C(C)C)NC(=O)C[C@@H](NC(=O)C[C@@H](N)CCCN)C(C)C [β53-L3]	hDM21-188 (hDM2) (Homo sapiens)	IC50	>	7000
CC(C)[C@H](N)CC(=O)N[C@H](CC(=O)N[C@@H](CCCN)CC(=O)N[C@H](CC(=O)N[C@H](CC(=O)N[C@@H](CCC(=O)O)CC(=O)O)Cc1ccccc1)C(C)C)Cc1c[nH]c2ccccc12 [β53-6]	hDM21-188 (hDM2) (Homo sapiens)	IC50	=	36.2
CC(C)C[C@@H](CC(=O)N[C@@H](CCC(=O)O)CC(=O)N[C@H](CC(=O)N[C@H](CC(=O)N[C@@H](CCCN)CC(=O)N[C@H](CC(=O)N[C@H](CC(=O)N[C@@H](CCC(=O)O)CC(=O)O)Cc1ccccc1)C(C)C)Cc1c[nH]c2ccccc12)C(C)C)NC(=O)C[C@@H](NC(=O)C[C@@H](N)CCCN)C(C)C [β53-1]	hDM21-188 (hDM2) (Homo sapiens)	IC50	=	94.5
